Target: PIM2 (Homo sapiens, UniProt Q9P1W9)
Sequence (Q9P1W9 whole entry): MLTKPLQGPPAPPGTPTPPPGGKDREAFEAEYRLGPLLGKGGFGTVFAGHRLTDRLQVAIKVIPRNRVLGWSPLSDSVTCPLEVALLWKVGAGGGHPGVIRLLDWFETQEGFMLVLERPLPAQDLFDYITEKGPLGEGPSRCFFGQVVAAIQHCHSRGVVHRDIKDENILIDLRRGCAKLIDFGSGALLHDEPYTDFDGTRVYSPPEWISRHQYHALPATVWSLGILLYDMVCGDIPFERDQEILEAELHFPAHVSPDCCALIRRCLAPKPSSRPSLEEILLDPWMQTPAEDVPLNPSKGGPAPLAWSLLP
Test: Kinase panel: PIM2
Type: biochemical, human/mammalian
Conditions: compound at 10 μM, read-out: % of activity respect of the control
TEST READOUT: remaining activity at 10 µM (%)

{"COMPOUND": "C[C@H](c1ccccc1)n1c(=O)[nH]c2ncc(-c3ccccc3)nc21 [Compound 14]", "TEST READOUT": "remaining activity at 10 µM", "EXPERIMENTAL RESULT": 96}
{"COMPOUND": "O=c1[nH]c2ncc(-c3ccc(F)cc3)nc2n1C1CCCCC1 [Compound 12]", "TEST READOUT": "remaining activity at 10 µM", "EXPERIMENTAL RESULT": 111}
{"COMPOUND": "O=c1[nH]c2ncc(-c3ccc(F)cc3)nc2n1CC1CC1 [Compound 10]", "TEST READOUT": "remaining activity at 10 µM", "EXPERIMENTAL RESULT": 111}
{"COMPOUND": "CC(c1ccccc1)n1c(=O)[nH]c2ncc(-c3ccc(F)cc3)nc21 (stereo not shown) [Compound 1]", "TEST READOUT": "remaining activity at 10 µM", "EXPERIMENTAL RESULT": 113}
